Each entry below carries its reported inhibition.
Molecular target: 3',5'-cyclic-AMP phosphodiesterase 4B (Homo sapiens, UniProt Q07343)
Sequence (Q07343 whole entry): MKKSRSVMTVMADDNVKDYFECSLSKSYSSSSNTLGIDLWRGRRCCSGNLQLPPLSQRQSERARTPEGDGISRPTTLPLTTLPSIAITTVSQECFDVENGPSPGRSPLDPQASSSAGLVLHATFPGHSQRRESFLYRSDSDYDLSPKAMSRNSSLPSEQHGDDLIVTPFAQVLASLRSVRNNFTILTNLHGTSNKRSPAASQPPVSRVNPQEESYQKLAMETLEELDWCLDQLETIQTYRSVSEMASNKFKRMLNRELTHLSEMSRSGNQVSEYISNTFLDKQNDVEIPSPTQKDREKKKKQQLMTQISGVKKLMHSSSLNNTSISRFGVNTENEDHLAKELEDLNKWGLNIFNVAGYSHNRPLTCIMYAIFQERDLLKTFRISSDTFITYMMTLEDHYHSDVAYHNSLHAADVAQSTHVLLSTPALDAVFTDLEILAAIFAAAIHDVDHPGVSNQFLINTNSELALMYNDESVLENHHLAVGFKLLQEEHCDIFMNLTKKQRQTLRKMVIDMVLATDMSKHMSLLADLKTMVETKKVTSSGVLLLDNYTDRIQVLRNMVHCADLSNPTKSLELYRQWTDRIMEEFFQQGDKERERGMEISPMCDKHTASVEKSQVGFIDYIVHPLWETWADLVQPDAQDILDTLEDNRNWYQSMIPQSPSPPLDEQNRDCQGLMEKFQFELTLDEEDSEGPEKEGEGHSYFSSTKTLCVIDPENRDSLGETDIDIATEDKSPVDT
Assay: Inhibition of PDE4B (unknown origin) using [3H]cAMP as substrate at 10 uM incubated for 30 mins by scintillation proximity assay relative to control
Give the quantity in %, number only.

These solved cases illustrate the format of a correct answer.
# compoundSmiles, inhibition [%]
rows = [
    ("C=CCc1c(-c2cccc(NC(=O)c3ccccc3)c2)oc(=O)c2ccccc12", 72.6),
    ("C=CCc1c(-c2cccc(NS(=O)(=O)c3ccccc3)c2)oc(=O)c2cc(F)ccc12", 82.2),
    ("C=CCc1c(-c2cccc(NS(=O)(=O)c3ccc(C(F)(F)F)cc3)c2)oc(=O)c2ccccc12", 55.3),
]

Q: What does the record list as inhibition for C=CCc1c(-c2cccc(NS(C)(=O)=O)c2)oc(=O)c2ccc(Cl)cc12 ?
Ans: 62.2

Q: Similarly, C=CCc1c(-c2cccc(NS(=O)(=O)c3ccccc3)c2)oc(=O)c2ccc(Cl)cc12 ?
Ans: 81.2

Q: Next record, please: C=CCc1c(-c2cccc(NS(=O)(=O)c3cccs3)c2)oc(=O)c2cc(F)ccc12
Ans: 96

Q: Please answer likewise for C=CCc1c(-c2ccc(NC(=O)c3ccccc3)cc2)oc(=O)c2ccccc12
Ans: 46.5

Q: Please give the result for C=CCc1c(-c2ccc(NS(C)(=O)=O)cc2)oc(=O)c2ccccc12 too.
Ans: 54.9

Q: Can you check C=CCc1c(-c2cccc(NS(=O)(=O)c3ccccc3)c2)oc(=O)c2ccccc12 next?
Ans: 82.9
